# Tested on: Mycosphaerella graminicola; Anamorph: Septoria tritici
# test method notes: Leaf blotch of wheat (SEPTTR) disease control on wheat seedlings
# Type: in vivo
# experimental conditions: Zymoseptoria tritici, 72 h; Wheat Leaf Blotch; 3 Day Curative; high volume application, 100 ppm; read-out: Disease Control SEPTTR 3 DC 100 ppm
Can you tell me pest or weed control at 100 ppm for the items I'm about to list?

Please state pest or weed control at 100 ppm for every compound in the list that follows.
1. COc1ccnc(C(=O)N[C@H]2CCC[C@H](Oc3ccccc3)[C@@H](OC(=O)C3CCCC3)[C@H](C)OC2=O)c1OCOC(C)=O
2. COc1ccnc(C(=O)N[C@H]2CCC[C@H](Oc3ccccc3)[C@@H](OC(=O)C3CCCC3)[C@H](C)OC2=O)c1OC(=O)C1CC1
3. CCCO[C@H]1CCC[C@H](NC(=O)c2nccc(OC)c2O)C(=O)O[C@@H](C)[C@@H]1Oc1ccc(F)cc1

80 to 100%
0 to 80%
80 to 100%

Please give the measured pest or weed control at 100 ppm for this compound: `CCCO[C@H]1CCC[C@H](NC(=O)c2nccc(OC)c2OC(C)=O)C(=O)O[C@@H](C)[C@@H]1Oc1cccc(F)c1` 80 to 100%
